Origin of values: paper PMC8488277

assay: IAM-HPLC chromatographic capacity factor (log k' IAM); assay type: physicochemical; details: IAM.PC.MG 12 µm column; isocratic ACN/0.035 M phosphate buffer pH 6.8 (30:70 v/v), 0.5 ml/min; k'=(Tr–T0)/T0; mean of 2–4 determinations
Binary label based on Log (k'IAM) with cut-off -0.2: below gives satisfied, not below gives not satisfied.

## Input Find out if reported Log (k'IAM) for CC=C[S+]([O-])C[C@H](N)C(=O)O (stereo in doubt) is less than -0.2
## Output satisfied

## Input And CCSCC [Ethyl sulfide] ?
## Output not satisfied

## Input Same thing, different compound: C[S+]([O-])C[C@H](N)C(=O)O (single isomer, unassigned; (+)) [Methiin, (+)-S-methyl-L-cysteine sulfoxide]
## Output satisfied

## Input Next compound: C=CCN=C=S [Allyl isothiocyanate]
## Output not satisfied

## Input Same read-out for C=CCSC [Allyl methyl sulfide, allyl methyl sulfide] ?
## Output satisfied

## Input Another compound to check: C=CCSS/C=C\C[S+]([O-])CC=C (stereo not drawn)
## Output not satisfied

## Input Thanks! And S=C=NCCc1ccccc1 [Phenethyl isothiocyanate] ?
## Output not satisfied

## Input And for S=C=NCc1ccccc1 [Benzyl isothiocyanate] ?
## Output not satisfied

## Input S=C=Nc1ccccc1 [Phenyl isothiocyanate] ?
## Output not satisfied

## Input Can you handle C=CCSS/C=C/C[S+]([O-])CC=C (stereo not drawn) next?
## Output not satisfied

## Input What about C=CC1SC=CCS1 (stereo not drawn) ?
## Output not satisfied

## Input Now try C=CCSSSCC=C [Diallyl Trisulfide, diallyl trisulfide] .
## Output not satisfied

## Input Now try C=CCSSCC=C [Diallyl disulfide, diallyl disulfide] .
## Output not satisfied

## Input And for CCSSCC [Ethyl disulfide] ?
## Output not satisfied

## Input Then what about the compound C[S+]([O-])CCCCN=C=S (stereo not drawn) ?
## Output satisfied

## Input What do you have for C=CCSCC=C [Diallyl sulfide, diallyl sulfide] ?
## Output not satisfied

## Input Would you kindly repeat that for CSSC [Dimethyl disulfide, dimethyl disulfide] ?
## Output not satisfied

## Input Same question, C=CCS[S+]([O-])CC=C (stereo not drawn) [Allicin, diallyl thiosulfinate] this time
## Output satisfied

## Input Also, CCCSSCCC [Propyl disulfide] please.
## Output not satisfied

## Input # iterate: C[S+]([O-])/C=C/CCN=C=S (stereo not drawn)
## Output satisfied

## Input How about c1coc(CSSCc2ccco2)c1 [Furfuryl disulfide, furfuryl disulfide] ?
## Output not satisfied

## Input Try the compound CCCSSSC [Methyl Propyl Trisulfide]
## Output not satisfied
